experiment: M. tuberculosis growth inhibition, HTS (AID 449762);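 further: bacterial growth assessed after seven days of incubation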; conditions: M. tuberculosis H37Rv growth inhibition, 7H9 media; at 25 µM; active compounds read high
Out of some 330,000 compounds screened, about 1,900 (0.58%) were called active. Another 4% or so got no clear call; they are omitted. Not all results are given here. Measured potencies and affinities stand elsewhere.
quantity_measured: inhibition

Reference set, count: 3
Data point: COc1cccc(CNS(=O)(=O)c2cccc(S(=O)(=O)N3CCOCC3)c2)c1 ; inhibition = 5.34% (inactive)

Kindly note the recorded inhibition for Cn1c(SCc2ccccn2)nnc1-c1cnccn1 , which is -3.38% (inactive)

Reported inhibition of COc1ccc(CC(=O)NCc2nnc(SCC(=O)Nc3ccccc3)n2C)cc1 : 4.29% (inactive)

Below are some compounds; for each one, tell me its inhibition.
1. CCOC(=O)N1CCN(C(=O)CSc2ccc(C(=O)OC)cc2[N+](=O)[O-])CC1
2. COCCNC(=O)C1CC2Cn3c(nc4cc(Cl)c(Cl)cc43)C2N1C (stereo not drawn)
3. CC(C)NS(=O)(=O)c1ccc(CCC(=O)N2CCC(C(N)=O)CC2)cc1
4. COc1ccc(-n2nc3c(N4CCC(C(=O)NCc5ccccc5C)CC4)nnc(C)c3c2C)cc1
5. Cc1noc(C)c1C(=O)OCC(=O)Nc1cc(Cl)ccc1Oc1ccccc1

Out:
-7.7% (inactive)
2.07% (inactive)
-7.28% (inactive)
8.33% (inactive)
2.51% (inactive)

---

assay: M. tuberculosis growth inhibition, HTS (AID 449762);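 further: bacterial growth assessed after seven days of incubation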; conditions: M. tuberculosis H37Rv growth inhibition, 7H9 media; at 25 µM; active compounds read high
In all, about 330,000 compounds went through this assay and about 1,900 (0.58%) were called active. Roughly 4% stayed inconclusive and do not appear here. A selection follows. Entries with a potency or affinity are not part of this list.
Param threshold (8%) applies to inhibition; output 1.0 when value >= threshold, 0.0 when value < threshold.

Here are 6 compounds together with their reported answers.
In: Does the reported inhibition for CC(O)(CS(=O)(=O)Cc1ccccc1)C(=O)Nc1cccc(C(F)(F)F)c1 (configuration not stated) fall at or above the 8% mark?
Out: 1.0

In: Entry O=C(CCN1C(=O)c2ccccc2C1=O)Nc1nc2ccccc2s1 : is its inhibition no less than 8%?
Out: 1.0

In: Could you verify whether the entry O=C(Nc1ccc(OC(F)F)cc1)c1ncc(Cl)c(Cl)c1Cl shows inhibition of no less than 8%?
Out: 0.0

In: Could you verify whether the entry CCOC(=O)c1csc(NC(C)=O)n1 shows inhibition of no less than 8%?
Out: 0.0

In: Dear colleague, could you confirm whether CCN(CCn1cccn1)Cc1nc(-c2ccc(C(=O)OC)cc2)no1 has inhibition at or above 8%?
Out: 1.0

In: Decide: is the reported value of inhibition for COc1ccc(C2CC(c3ccccc3)=NN2C(=O)COC(=O)c2ccc(S(C)(=O)=O)cc2)cc1 (configuration not stated) equal to or greater than 8%?
Out: 0.0

Now examine the next entry.
In: Confirm if inhibition reported for the compound CC(Oc1ccc(Br)cc1)C(=O)NCC(C)(C)N1CCOCC1 (configuration not stated) is 8% or above.
Out: 0.0

---

test: M. tuberculosis growth inhibition, HTS (AID 449762);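 further: bacterial growth assessed after seven days of incubation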; settings: M. tuberculosis H37Rv growth inhibition, 7H9 media; at 25 µM; active compounds read high
Among all 330,000 compounds or so, about 1,900 (0.58%) were called active. Another 4% or so got no clear call; they are omitted. Not all results are given here. Entries with a potency or affinity are not part of this list.
quantity_measured: inhibition (%)
One number for each entry, in %.

These recorded examples may help you get a feel for the data.
The compound listed as CC(=O)Nc1ccc(S(=O)(=O)Oc2cccc(/C=N/N=C3/NC(=O)C(CC(=O)O)S3)c2)cc1 (stereo not drawn) has a reported inhibition of -3.02

Sample Cc1cc(C)c2oc(=O)cc(CN3CCC(C)CC3)c2c1 ; inhibition observed: 5.8

Recorded inhibition (compound C=CCc1ccccc1OCC(O)CN1CCN(c2ccc(C)cc2)CC1 (stereo not drawn) ): 8.24

inhibition for O=C(CN1CCNC(=O)C1)NCCc1ccc(Cl)cc1Cl is -0.1

Sure, the documented inhibition for CN(C)c1oc(/C=C/c2ccccc2)nc1C#N is 2.83

Record Cc1ccccc1CN1C(=O)[C@@H]2Cc3c([nH]c4ccccc34)C(C)(C)N2C1=O . Reported inhibition: 8.29

// inhibition lookup, compound = O=C(O)c1ccccc1C(=O)NC1CCCCNC1=O (stereo not drawn) , result: -1.29

Noted for COCCCNc1nc2cc(OC)c(OC)cc2c2nc(-c3ccccc3)nn12 : its inhibition reads 13

The recorded inhibition for entry CC1CCc2nc3ccccc3c(C(=O)OCC(=O)NC3CCS(=O)(=O)C3)c2C1 (stereo not drawn) equals 9.92

Field inhibition (entry O=[N+]([O-])c1ccc(-c2nc(-c3ccncc3)no2)cc1 ) reads 7.86

Please supply inhibition for each of the following items, keeping them in order.
1. CCCCc1ncc(CN2CCN(Cc3ccc(C)cc3)C(CCO)C2)[nH]1 (stereo not drawn)
2. CN(C)CCCN(C(=O)c1nc2ccccc2s1)c1nc2ccc(F)cc2s1
3. CCOC(=O)c1c(-c2ccc(F)cc2)csc1NC(=O)CN1C(=O)NC2(CCCCC2C)C1=O (stereo not drawn)
4. O=C(OCC(=O)N1CCCCCC1)c1ccccc1Br
5. O=C(c1ccc(Oc2ccc(C(F)(F)F)cn2)cc1)N1CCN(c2ccccc2)CC1
6. COc1ccc(-c2c(C(=O)O)c(C(=O)O)c3n2CCC3)cc1

Out:
1. 0.18
2. -11.9
3. 4.04
4. 4.05
5. 46.7
6. 0.3

// each compound listed below needs its inhibition
1. COc1ccc(N2CCN(C(=O)c3ccc(Oc4ccc(C(F)(F)F)cn4)cc3)CC2)cc1
2. Cc1cccc(NC(=O)CSc2nnc(Cc3ccccc3)o2)c1
3. COc1cccc(C(=O)N/N=c2\sc3ccccc3n2C)c1

Out:
1: 10.5; 2: 9.03; 3: 29.6
